FYI, the data here is from patent US10087192B2.

Assay: log P by HPLC on reversed-phase column (EEC Directive 79/831 Annex V.A8)
Format: physicochemical
Conditions: pH 7.8, 0.001 molar aqueous ammonium hydrogencarbonate/acetonitrile, 55° C.; read-out: log P (neutral)
Measured Quantity: chromatographic logP
Could you respond with only the numeric value?

(Q) Look up chromatographic logP of "Cn1c(-c2nc(Cl)ccc2Cl)nc2cc(C(F)(F)F)ncc21" and report it.
(A) 2.81

###

Test: log P by HPLC on reversed-phase column (EEC Directive 79/831 Annex V.A8)
Type: physicochemical
Details: reversed-phase HPLC column (C18); pH 7.8, 0.001 molar aqueous ammonium hydrogencarbonate/acetonitrile, 55° C.; read-out: log P (neutral)
Measured Quantity: chromatographic logP
Respond numerically, and do not add a unit to the figure.

{"Query Smiles": "CCSc1ccc(Cl)nc1-c1nc2cc(C(F)(F)F)ncc2n1C", "chromatographic logP": 3.06}
{"Query Smiles": "CCS(=O)(=O)c1ccc(Cl)nc1-c1nc2cc(C(F)(F)F)ncc2n1C", "chromatographic logP": 2.54}
{"Query Smiles": "CNc1cnc(C(F)(F)C(F)(F)F)cc1N", "chromatographic logP": 1.68}
{"Query Smiles": "CCS(=O)(=O)c1ccc(-c2ccsc2)nc1-c1nc2cc(C(F)(F)F)ncc2n1C", "chromatographic logP": 3.13}

(Q) Given the compound "CCS(=O)(=O)c1ccc(-n2cc(C(F)(F)F)cn2)nc1-c1nc2cc(C(F)(F)F)ncc2n1C" , write its reported chromatographic logP.
(A) 3.34

###

System: Spodoptera frugiperda
Assay: Spodoptera frugiperda spray test (maize leaf discs)
Assay type: in vivo
Conditions: 100 g/ha, after 7 days, caterpillars on maize leaf discs
Measured Quantity: efficacy (%)
I only need the number, in %, no unit after it.

Illustrative cases are given below, each with its answer.
{"Compound": "CCS(=O)(=O)c1ccc(-n2cc(F)cn2)nc1-c1nc2cc(C(F)(F)F)ncc2n1C [Example 28]", "efficacy (%)": 100}
{"Compound": "CCS(=O)(=O)c1ccc(-n2cccn2)nc1-c1nc2cc(C(F)(F)F)ncc2n1C [Example 21]", "efficacy (%)": 100}
{"Compound": "CCS(=O)(=O)c1ccc(-n2ccc(Cl)n2)nc1-c1nc2cc(C(F)(F)F)ncc2n1C [Example 9]", "efficacy (%)": 83}

# input for lookup
(Q) Tell me measured efficacy for CCS(=O)(=O)c1ccc(-n2cc(Cl)cn2)nc1-c1nc2cc(C(F)(F)F)ncc2n1C [Example 6] please.
(A) 100

###

Test system: Musca domestica
Assay: Musca domestica test
Assay type: in vivo
Details: 100 ppm, after 2 days, adult houseflies
Item-by-item account of efficacy (kill)
Respond numerically; units are % and should not be typed.

{"Query Smiles": "CCS(=O)(=O)c1ccc(-n2cc(C#N)cn2)nc1-c1nc2cc(C(F)(F)F)ncc2n1C", "Study System": "Musca domestica", "Measured Quantity": "efficacy (kill)", "Unit String": "%", "Quantitative Result": 100}

(Q) Give reported efficacy (kill) value for "CCS(=O)(=O)c1ccc(-n2cc(Cl)cn2)nc1-c1nc2cc(C(F)(F)F)ncc2n1C"
(A) 85

(Q) Specify reported efficacy (kill) for the molecule shown: "CCS(=O)(=O)c1ccc(-n2cc(C(F)(F)F)nn2)nc1-c1nc2cc(C(F)(F)F)ncc2n1C"
(A) 80

(Q) Supply efficacy (kill) value. Item: "CCS(=O)(=O)c1ccc(-n2ccc(C(F)F)n2)nc1-c1nc2cc(C(F)(F)F)ncc2n1C"
(A) 100

(Q) Answer with reported efficacy (kill) of "CCS(=O)(=O)c1ccc(-n2cc(F)cn2)nc1-c1nc2cc(C(F)(F)C(F)(F)F)ncc2n1C"
(A) 95

(Q) Indicate its recorded efficacy (kill); the molecule in question is "CCS(=O)(=O)c1ccc(-n2ccc(C#N)n2)nc1-c1nc2cc(C(F)(F)F)ncc2n1C"
(A) 80

(Q) Tell me efficacy (kill) reported for "CCS(=O)(=O)c1ccc(-n2cc(C3CC3)cn2)nc1-c1nc2cc(C(F)(F)F)ncc2n1C"
(A) 100

(Q) Provide measured efficacy (kill) value, entry: "CCS(=O)(=O)c1ccc(-n2cc(C(F)(F)F)cn2)nc1-c1nc2cc(C(F)(F)F)ncc2n1C"
(A) 90
